These measurements were taken from paper PMC9370035.

Assign viability at 48 h, 3 µM to each entry below.
Assay: Cell viability (resazurin-based PrestoBlue) in parallel with infectivity assay
Conditions: human; TZM-bl cells, 3 μM, with infection of HIV-1 NL4-3 at MOI of 1
All answers are understood in %, so give the number only.

State the recorded viability at 48 h, 3 µM for this entry: C=CCC1(C(=O)OC)Nc2cc(C)cc(C)c2C1=O (stereo not shown)
107

State the recorded viability at 48 h, 3 µM for this entry: CCCC1(C(=O)OC)Nc2ccc(OC)cc2C1=O (stereo not shown)
92.7

State the recorded viability at 48 h, 3 µM for this entry: "COC(=O)c1[nH]c2ccc(OC)cc2c1OC/C=C/Cl"
110

State the recorded viability at 48 h, 3 µM for this entry: CCOC(=O)C1(C/C=C/Cl)Nc2cccc(C)c2C1=O (stereo not shown)
106

State the recorded viability at 48 h, 3 µM for this entry: CCCC1(C(=O)OC)Nc2cc(C)cc(C)c2C1=O (stereo not shown)
99.4

State the recorded viability at 48 h, 3 µM for this entry: COC(=O)C1(C/C=C/Cl)Nc2cc(C)cc(C)c2C1=O (stereo not shown)
93

State the recorded viability at 48 h, 3 µM for this entry: Cc1cn([C@H]2C[C@H](N=[N+]=[N-])[C@@H](CO)O2)c(=O)[nH]c1=O [AZT, azidothymidine, reference compound]
94.8

State the recorded viability at 48 h, 3 µM for this entry: COC(=O)C1(C/C=C/Cl)Nc2ccc(OC)cc2C1=O (stereo not shown)
99.6

State the recorded viability at 48 h, 3 µM for this entry: "CCOC(=O)c1[nH]c2cccc(C)c2c1OC/C=C/Cl"
117

State the recorded viability at 48 h, 3 µM for this entry: COC(=O)C1(CC=C(Cl)Cl)Nc2cc(C)cc(C)c2C1=O (stereo not shown)
87.9

###

Experiment: Cell viability (resazurin-based PrestoBlue) in parallel with infectivity assay
Settings: human; TZM-bl cells, serial dilution starting from 100 μM; read-out: CC50 (concentration that reduces cell viability by 50%)
Assign CC50 at 48 h to each entry below.
All answers are understood in µM, so give the number only.

State the recorded CC50 at 48 h for this entry: CCOC(=O)C1(C/C=C/Cl)Nc2cccc(C)c2C1=O (centres unmarked) [Compound 6a]
87.4

State the recorded CC50 at 48 h for this entry: COC(=O)C1(C/C=C/Cl)Nc2cc(C)cc(C)c2C1=O (centres unmarked) [Compound 6f]
51

State the recorded CC50 at 48 h for this entry: O=C1Nc2ccc(Cl)cc2[C@@](C#CC2CC2)(C(F)(F)F)O1 [EFV, efavirenz, reference compound]
34.2

State the recorded CC50 at 48 h for this entry: COC(=O)C1(CC=C(Cl)Cl)Nc2cc(C)cc(C)c2C1=O (centres unmarked) [Compound 6g]
43.6

###

recorded.metric: melting point

State the recorded melting point for this entry: COC(=O)C1(CC=C(Cl)Cl)Nc2cc(C)cc(C)c2C1=O (stereo not drawn)
> 300 °C

State the recorded melting point for this entry: C=CCC1(C(=O)OC)Nc2cc(C)cc(C)c2C1=O (stereo not drawn)
147 °C

State the recorded melting point for this entry: CCOC(=O)C1(C/C=C/Cl)Nc2cccc(C)c2C1=O (stereo not drawn)
> 300 °C

State the recorded melting point for this entry: "COC(=O)c1[nH]c2ccc(OC)cc2c1OC/C=C/Cl"
> 300 °C

State the recorded melting point for this entry: CCCC1(C(=O)OC)Nc2ccc(OC)cc2C1=O (stereo not drawn)
117 to 118 °C

State the recorded melting point for this entry: "CCOC(=O)c1[nH]c2cccc(C)c2c1OC/C=C/Cl"
226 °C

State the recorded melting point for this entry: COC(=O)C1(C/C=C/Cl)Nc2cc(C)cc(C)c2C1=O (stereo not drawn)
> 300 °C

State the recorded melting point for this entry: CCCC1(C(=O)OC)Nc2cc(C)cc(C)c2C1=O (stereo not drawn)
132 to 133 °C

State the recorded melting point for this entry: COC(=O)C1(C/C=C/Cl)Nc2ccc(OC)cc2C1=O (stereo not drawn)
> 300 °C
